- Tested on: Micrococcus luteus ATCC 9341 LRP 6
- TEST METHOD NOTES: Bacteriostatic power in solid medium (MIC)
- Assay type: cell-based
- RUN CONDITIONS: Micrococcus luteus, ATCC9341, read-out: Minimum inhibiting concentration
OBSERVED PROPERTY: MIC

These solved cases illustrate the format of a correct answer.
COMPOUND	TEST TARGET	MIC
CC[C@H]1OC(=O)[C@H](C)[C@@H](O[C@H]2C[C@@](C)(OC)[C@@H](O)[C@H](C)O2)[C@H](C)[C@@H](O[C@@H]2O[C@H](C)C[C@H](N(C)C)[C@H]2O)[C@](C)(O)C[C@](C)(F)C(=O)[C@H](C)[C@@H](O)[C@]1(C)O	Micrococcus luteus ATCC 9341 LRP 6	0.006 µg/mL
CC[C@H]1OC(=O)[C@H](C)[C@@H](O[C@H]2C[C@H](OC)[C@@H](O)[C@H](C)O2)[C@H](C)[C@@H](O[C@@H]2O[C@H](C)C[C@H](N(C)C)[C@H]2O)[C@](C)(O)C[C@](C)(F)C(=O)[C@H](C)[C@@H](O)[C@]1(C)O	Micrococcus luteus ATCC 9341 LRP 6	0.049 µg/mL
CC[C@H]1OC(=O)[C@H](C)[C@@H](O[C@H]2C[C@@](C)(OC)[C@@H](O)[C@H](C)O2)[C@H](C)[C@@H](O[C@@H]2O[C@H](C)C[C@H](N(C)C)[C@H]2O)[C@](C)(O)C[C@@H](C)C(=O)[C@H](C)[C@@H](O)[C@]1(C)O [Erythromycin A, reference compound]	Micrococcus luteus ATCC 9341 LRP 6	0.006 µg/mL

Proceed to the following item.
query: Note down MIC recorded for `CC[C@H]1OC(=O)[C@H](C)[C@@H](O[C@H]2C[C@H](OC)[C@@H](O)[C@H](C)O2)[C@H](C)[C@@H](O[C@@H]2O[C@H](C)C[C@H](N(C)C)[C@H]2O)[C@](C)(O)C[C@](C)(F)C(=O)[C@H](C)[C@@H](O)[C@H]1C`
result: 0.049 µg/mL

---

This listing pairs compounds with measured MBC.
- Tested on: Streptococcus pyogenes ATCC 8668 LRP 34
- TEST METHOD NOTES: Minimum bactericidal concentration (MBC)
- Format: cell-based
- RUN CONDITIONS: Streptococcus pyogenes, ATCC8668; read-out: Minimum bactericidal concentration (MBC)
Report as: number unit

query: Note down MBC recorded for CC[C@H]1OC(=O)[C@H](C)[C@@H](O[C@H]2C[C@@](C)(O)[C@@H](O)[C@H](C)O2)[C@H](C)[C@@H](O[C@@H]2O[C@H](C)C[C@H](N(C)C)[C@H]2O)[C@](C)(O)C[C@](C)(F)C(=O)[C@H](C)[C@@H](O)[C@]1(C)O [P-80205, (8S)-8-fluoroerythromycin C]
result: 0.78 µg/mL

query: Note down MBC recorded for CC[C@H]1OC(=O)[C@H](C)[C@@H](O[C@H]2C[C@@](C)(OC)[C@@H](O)[C@H](C)O2)[C@H](C)[C@@H](O[C@@H]2O[C@H](C)C[C@H](N(C)C)[C@H]2O)[C@](C)(O)C[C@@H](C)C(=O)[C@H](C)[C@@H](O)[C@H]1C [Erythromycin B, reference compound]
result: 0.195 µg/mL

query: Note down MBC recorded for CC[C@H]1OC(=O)[C@H](C)[C@@H](O[C@H]2C[C@@](C)(OC)[C@@H](O)[C@H](C)O2)[C@H](C)[C@@H](O[C@@H]2O[C@H](C)C[C@H](N(C)C)[C@H]2O)[C@](C)(O)C[C@](C)(F)C(=O)[C@H](C)[C@@H](O)[C@H]1C [P-80203, (8S)-8-fluoroerythromycin B]
result: 0.195 µg/mL

query: Note down MBC recorded for CC[C@H]1OC(=O)[C@H](C)[C@@H](O[C@H]2C[C@@](C)(O)[C@@H](O)[C@H](C)O2)[C@H](C)[C@@H](O[C@@H]2O[C@H](C)C[C@H](N(C)C)[C@H]2O)[C@](C)(O)C[C@](C)(F)C(=O)[C@H](C)[C@@H](O)[C@H]1C [P-80202, (8S)-8-fluoroerythromycin D]
result: 0.39 µg/mL
